Test system: Staphylococcus aureus
protocol details: Antimicrobial activity against fluoroquinolone-resistant Staphylococcus aureus SA1199B
Assay type: functional
measurement name: MIC

Below: 4 molecules and their reported MIC.
1. COc1ccc(/C=C/C(=O)NCCc2c[nH]c3ccccc23)cc1OC: > 366 µM
2. O=C(/C=C/c1ccc(O)c(O)c1)NCCc1ccc(O)c(O)c1: ≥ 406 µM
3. O=C(/C=C/c1ccccc1)NCCc1ccc(O)c(O)c1: > 452 µM
4. COc1ccc(/C=C/C(=O)NCCc2cc(O)c(O)c(O)c2)cc1OC: 356 µM

Kindly consider the entry below.
Input line: Supply reported MIC belonging to this molecule: CCn1cc(C(=O)O)c(=O)c2cc(F)c(N3CCNCC3)cc21 [NORFLOXACIN]
Output line: 100 µM
